# study.system: T1, EutQ N-terminal domain fused with GB1 at its C terminus (EutQ^1–99-GB1) (S. Typhimurium LT2, UniProt Q9ZFV5 1-99)
# T1 construct: EutQ of S. Typhimurium LT2, N-terminal region, residues 1-99 (helices H1 to H4); Cloned into pETM11; Order of the chain: EutQ 1-99, hexahistidine tag, GB1; Uniformly 15N-labelled (15N, 13C for assignment) for NMR; also called N-terminal region of EutQ; source: E. coli BL21 (DE3) star, purified (His-trap, SEC on S200 Superdex)
# T1 sequence: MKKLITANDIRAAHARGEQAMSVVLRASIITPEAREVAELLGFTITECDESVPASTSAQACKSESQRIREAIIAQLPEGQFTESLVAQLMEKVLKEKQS
# test.method.notes: ITC; 20 μM protein in the cell, 200 to 400 μM peptide in the syringe; 19 injections, 25°C; 20 mM Na2HPO4, 20 mM NaCl, pH 6.5
# condition.set: both partners purified
quantity.measured: pKd
Give bare numbers, as −log10 of the molar value.

Entry under test: MDQKQIEEIVRSVMASMGQD (EutC of S. Typhimurium LT2, N-terminal encapsulation peptide, residues 1-20; also called EutC peptide; EP of EutC; source: synthetic peptide (GenicBio)) [EutC^1–20 encapsulation peptide] . Its pKd was 5.12

Just for reference, paper PMC12487888 is where these values come from.
